- Test system: SK-N-MM (SKNMM-MYCN, doxycycline-inducible MYCN)
- assay.details: area under dose-response curve (CellTiter-Glo viability normalised to plate controls) (AUC (arbitrary units)); higher = more loss of viability; extreme values may be limits of the assay
- run.conditions: MYCN induction (doxycycline): +doxycycline (MYCN induced); time after drugging: 3 days
value.type: area under dose-response curve
// no unit, no text: just the number

Worked examples follow.
COc1cc2/c(=N/c3ccc(Br)cc3F)nc[nH]c2cc1OCC1CCN(C)CC1 [VANDETANIB] | 3.18
CS(=O)(=O)CCNCc1ccc(-c2ccc3ncnc(Nc4ccc(OCc5cccc(F)c5)c(Cl)c4)c3c2)o1 [LAPATINIB] | 0

Short answer please: area under dose-response curve, SK-N-MM (SKNMM-MYCN, doxycycline-inducible MYCN), entry CCN(CC)CCNC(=O)c1c(C)[nH]c(/C=C2\C(=O)Nc3ccc(F)cc32)c1C [SUNITINIB]
3.49

Request: CN(C)C1CCN(C(=O)c2ccc(NC(=O)Nc3ccc(-c4nc(N5CCOCC5)nc(N5CCOCC5)n4)cc3)cc2)CC1 [GEDATOLISIB]
39.4

Request: CC1(C)CNc2cc(NC(=O)c3cccnc3NCc3ccncc3)ccc21 [MOTESANIB DIPHOSPHATE]
0

Request: C/C=C1\NC(=O)[C@H]2CSSCC/C=C/[C@H](CC(=O)N[C@H](C(C)C)C(=O)N2)OC(=O)[C@H](C(C)C)NC1=O [ROMIDEPSIN]
231

Request: Cn1nccc1Nc1nccc(-c2ccn([C@H](CO)c3ccc(Cl)c(F)c3)c(=O)c2)n1 [GDC-0994]
0

Recorded values, source the supplement of paper PMC7021759.
